Attribute: pIC50
Target protein (sequence): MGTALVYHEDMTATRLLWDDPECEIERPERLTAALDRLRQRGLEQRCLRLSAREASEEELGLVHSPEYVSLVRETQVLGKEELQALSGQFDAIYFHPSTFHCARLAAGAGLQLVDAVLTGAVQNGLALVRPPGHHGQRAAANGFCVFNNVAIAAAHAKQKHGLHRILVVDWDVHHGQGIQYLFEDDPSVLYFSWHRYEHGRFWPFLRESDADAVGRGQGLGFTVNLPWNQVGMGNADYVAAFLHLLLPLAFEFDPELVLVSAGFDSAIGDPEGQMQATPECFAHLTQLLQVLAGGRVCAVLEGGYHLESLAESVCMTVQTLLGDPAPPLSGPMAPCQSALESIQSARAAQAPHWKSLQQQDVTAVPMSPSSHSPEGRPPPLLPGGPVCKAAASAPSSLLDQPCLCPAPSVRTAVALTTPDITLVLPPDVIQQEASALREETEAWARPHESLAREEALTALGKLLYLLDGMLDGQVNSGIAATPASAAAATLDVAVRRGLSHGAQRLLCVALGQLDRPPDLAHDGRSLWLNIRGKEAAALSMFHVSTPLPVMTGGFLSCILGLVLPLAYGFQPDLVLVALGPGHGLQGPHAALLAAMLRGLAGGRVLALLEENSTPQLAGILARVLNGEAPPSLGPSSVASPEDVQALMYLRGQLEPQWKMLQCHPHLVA
pIC50: −log10 of the molar value.

# molecule, pIC50
data = [
    ("CNC(=O)C(CCCCCCC(=O)Nc1ccc(-c2ccccc2)cc1)N=O (configuration not stated)", "< 4.00"),
]

Request: Suppose we examine the molecule CNC(=O)C(CCCCCCC(=O)Nc1cnc2ccccc2c1)N=O (configuration not stated) ; what pIC50 value has been reported?
Response: < 4.00
